Experiment: Single-dose oral pharmacokinetic study in squirrel monkeys (LC/MS/MS serum concentrations)
Type: in vivo, squirrel monkeys (Saimiri sciureus)
Settings: both sexes, monkey, serum; squirrel monkeys; 50 mg/kg oral single dose; n = 3; read-out: t1/2 terminal elimination half-life (converted)
Protocol: All animal experiments were carried out in compliance with the regulations of German animal protection laws and authorized by the Regierungspräsidium Darmstadt, Germany (Dezernat V54 – Veterinärwesen und Verbraucherschutz, Hilpertstrasse 31, 64295 Darmstadt). […] Clinical signs, rectal temperature, and weight were recorded daily, and throat swabs and blood samples were collected before infection and twice weekly thereafter. […]
EXPERIMENTAL_ENDPOINT: half-life
Returns: string containing the numeric result and its unit.

Lookup: May I ask what half-life has been recorded for Cn1nc(C(F)(F)F)cc1C(=O)Nc1ccc(S(=O)(=O)N2CCCC[C@H]2CCN2CCOCC2)cc1 [ERDRP-0519] ?
Found: 4.2 h

* * *

Assay: Single-dose oral pharmacokinetic study in squirrel monkeys (LC/MS/MS serum concentrations)
Type: in vivo, squirrel monkeys (Saimiri sciureus)
Details: both sexes, monkey, serum, po, 50 mg/kg, squirrel monkeys; 50 mg/kg oral (intragastric) single dose; n = 3; read-out: tmax
Method: All animal experiments were carried out in compliance with the regulations of German animal protection laws and authorized by the Regierungspräsidium Darmstadt, Germany (Dezernat V54 – Veterinärwesen und Verbraucherschutz, Hilpertstrasse 31, 64295 Darmstadt). […] Clinical signs, rectal temperature, and weight were recorded daily, and throat swabs and blood samples were collected before infection and twice weekly thereafter. […]
EXPERIMENTAL_ENDPOINT: tmax (h)
Numbers only, in h.

Lookup: Query: tmax; subject: Cn1nc(C(F)(F)F)cc1C(=O)Nc1ccc(S(=O)(=O)N2CCCC[C@H]2CCN2CCOCC2)cc1
Found: 1.8

* * *

assay: Single-dose oral pharmacokinetic study in squirrel monkeys (LC/MS/MS serum concentrations); assay type: in vivo, squirrel monkeys (Saimiri sciureus); details: both sexes, monkey, serum; squirrel monkeys; 50 mg/kg oral single dose; n = 3
EXPERIMENTAL_ENDPOINT: Cmax (µM)
Numbers only, in µM.

Lookup: Fill in the blank: the reported Cmax of Cn1nc(C(F)(F)F)cc1C(=O)Nc1ccc(S(=O)(=O)N2CCCC[C@H]2CCN2CCOCC2)cc1 is ____.
Found: 3.27

* * *

assay: Single-dose oral pharmacokinetic study in squirrel monkeys (LC/MS/MS serum concentrations); type: in vivo, squirrel monkeys (Saimiri sciureus); conditions: both sexes, monkey, serum, oral, 50 mg/kg, 50 mg/kg oral; 3 h post-application; individual animals; read-out: ERDRP-0519 serum conc.
EXPERIMENTAL_ENDPOINT: concentration at 3 h (nM)
Give bare numbers, in nM.

Lookup: Item Cn1nc(C(F)(F)F)cc1C(=O)Nc1ccc(S(=O)(=O)N2CCCC[C@H]2CCN2CCOCC2)cc1 has what recorded concentration at 3 h?
Found: 2510

* * *

assay: Single-dose oral pharmacokinetic study in squirrel monkeys (LC/MS/MS serum concentrations); format: in vivo, squirrel monkeys (Saimiri sciureus); settings: both sexes, monkey, serum; squirrel monkeys; 50 mg/kg oral single dose; n = 3
EXPERIMENTAL_ENDPOINT: AUC(0-inf) (µM·h)
Give bare numbers, in µM·h.

Lookup: What AUC(0-inf) value was documented for this compound, Cn1nc(C(F)(F)F)cc1C(=O)Nc1ccc(S(=O)(=O)N2CCCC[C@H]2CCN2CCOCC2)cc1 [ERDRP-0519] ?
Found: 24.4

* * *

assay: Single-dose oral pharmacokinetic study in squirrel monkeys (LC/MS/MS serum concentrations); format: in vivo, squirrel monkeys (Saimiri sciureus); settings: both sexes, monkey, serum, oral, 50 mg/kg, 50 mg/kg oral; 0 h post-application; individual animals; read-out: ERDRP-0519 serum conc.
EXPERIMENTAL_ENDPOINT: concentration at 0 h

Lookup: Item under review: Cn1nc(C(F)(F)F)cc1C(=O)Nc1ccc(S(=O)(=O)N2CCCC[C@H]2CCN2CCOCC2)cc1 [ERDRP-0519] . Reported concentration at 0 h?
Found: 0 nM
